testedSystem: Neurogenic locus notch homolog protein 2 (Homo sapiens) (UniProt Q04721)
Sequence (Q04721 whole entry, looked up): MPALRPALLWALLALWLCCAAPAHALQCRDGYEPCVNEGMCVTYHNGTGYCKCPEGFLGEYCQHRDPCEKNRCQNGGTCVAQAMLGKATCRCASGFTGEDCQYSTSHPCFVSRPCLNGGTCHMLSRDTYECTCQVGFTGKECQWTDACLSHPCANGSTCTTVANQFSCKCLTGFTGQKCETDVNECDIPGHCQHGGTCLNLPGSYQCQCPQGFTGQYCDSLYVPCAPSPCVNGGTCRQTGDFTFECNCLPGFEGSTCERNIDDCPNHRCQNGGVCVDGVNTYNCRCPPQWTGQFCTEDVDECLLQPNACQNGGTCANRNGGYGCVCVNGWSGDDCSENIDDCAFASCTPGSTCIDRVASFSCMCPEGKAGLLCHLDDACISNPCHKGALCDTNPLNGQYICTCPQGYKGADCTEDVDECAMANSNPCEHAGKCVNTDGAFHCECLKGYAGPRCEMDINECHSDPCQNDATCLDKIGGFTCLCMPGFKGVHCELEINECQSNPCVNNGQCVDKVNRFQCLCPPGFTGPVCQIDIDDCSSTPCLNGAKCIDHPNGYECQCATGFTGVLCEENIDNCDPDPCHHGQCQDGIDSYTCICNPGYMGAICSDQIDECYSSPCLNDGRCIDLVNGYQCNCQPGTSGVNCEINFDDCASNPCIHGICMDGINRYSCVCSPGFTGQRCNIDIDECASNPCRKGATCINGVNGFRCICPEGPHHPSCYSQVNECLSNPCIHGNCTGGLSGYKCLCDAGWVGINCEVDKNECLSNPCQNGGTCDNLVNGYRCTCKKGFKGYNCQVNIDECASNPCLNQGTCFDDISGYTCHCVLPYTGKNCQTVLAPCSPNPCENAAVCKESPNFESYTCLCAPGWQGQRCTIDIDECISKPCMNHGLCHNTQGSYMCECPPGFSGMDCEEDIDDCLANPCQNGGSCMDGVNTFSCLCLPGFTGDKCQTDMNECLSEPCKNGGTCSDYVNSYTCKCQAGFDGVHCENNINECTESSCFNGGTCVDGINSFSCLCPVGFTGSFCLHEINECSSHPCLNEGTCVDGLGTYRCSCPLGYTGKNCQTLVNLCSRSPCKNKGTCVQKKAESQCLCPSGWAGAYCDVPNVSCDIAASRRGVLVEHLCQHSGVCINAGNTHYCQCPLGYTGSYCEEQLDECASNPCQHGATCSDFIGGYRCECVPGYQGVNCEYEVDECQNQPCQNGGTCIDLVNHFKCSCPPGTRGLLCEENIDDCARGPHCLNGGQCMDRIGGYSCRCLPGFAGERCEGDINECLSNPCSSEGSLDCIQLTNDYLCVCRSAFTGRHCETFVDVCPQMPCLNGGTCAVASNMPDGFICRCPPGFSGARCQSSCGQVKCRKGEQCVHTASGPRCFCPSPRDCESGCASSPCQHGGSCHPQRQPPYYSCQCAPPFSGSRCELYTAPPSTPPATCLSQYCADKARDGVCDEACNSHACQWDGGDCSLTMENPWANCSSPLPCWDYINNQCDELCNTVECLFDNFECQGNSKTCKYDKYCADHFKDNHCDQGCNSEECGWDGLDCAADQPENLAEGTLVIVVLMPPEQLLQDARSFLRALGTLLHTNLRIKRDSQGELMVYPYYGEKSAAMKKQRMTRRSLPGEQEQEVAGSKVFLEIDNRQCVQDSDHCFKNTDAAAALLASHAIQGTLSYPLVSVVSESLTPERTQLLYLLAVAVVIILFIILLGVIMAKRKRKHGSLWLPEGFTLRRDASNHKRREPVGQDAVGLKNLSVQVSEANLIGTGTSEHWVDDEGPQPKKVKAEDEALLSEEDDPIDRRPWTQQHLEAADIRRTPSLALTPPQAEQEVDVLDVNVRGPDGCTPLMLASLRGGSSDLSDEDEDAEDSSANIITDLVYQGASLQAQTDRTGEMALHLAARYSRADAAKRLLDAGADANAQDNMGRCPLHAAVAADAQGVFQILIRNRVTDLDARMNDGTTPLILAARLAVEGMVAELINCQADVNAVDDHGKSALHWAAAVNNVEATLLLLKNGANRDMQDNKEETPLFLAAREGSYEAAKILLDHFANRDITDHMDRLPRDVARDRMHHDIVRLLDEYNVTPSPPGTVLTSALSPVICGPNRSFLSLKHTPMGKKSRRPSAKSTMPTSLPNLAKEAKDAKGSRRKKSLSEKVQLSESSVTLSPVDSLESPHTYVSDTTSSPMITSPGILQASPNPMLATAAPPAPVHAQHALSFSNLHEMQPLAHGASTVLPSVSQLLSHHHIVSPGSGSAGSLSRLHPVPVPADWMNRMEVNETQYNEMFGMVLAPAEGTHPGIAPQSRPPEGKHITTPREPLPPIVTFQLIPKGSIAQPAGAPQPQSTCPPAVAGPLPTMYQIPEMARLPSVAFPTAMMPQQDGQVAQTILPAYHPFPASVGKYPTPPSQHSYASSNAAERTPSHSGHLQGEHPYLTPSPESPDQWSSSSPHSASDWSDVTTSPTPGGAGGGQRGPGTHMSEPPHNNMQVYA
assaySummary: small molecules binding Notch2 protein – biochemical, small-molecule microarray, 635 nm fluorescence, stem cell growth factors, primary screen (AID 1073)
conditionContext: higher = more signal
quantity: composite z-score

# example entries with known answers
C=C(/C(=C/C[C@@H](OC(C)=O)c1ccccc1OCCO)c1cnc2ccccc2c1)C(C)C: 1.13
CC1=C2[C@@H](CCc3ccccc3)OB(O)C[C@@H]2[C@@H]2C(=O)C=CC(=O)[C@@H]2C1: 1.38

The following molecules each have a reported value; give each one's composite z-score.
1. COCCOC(=O)N1C(=O)[C@@]2(c3cc(C#CC4(O)CCCCCC4)ccc31)[C@H](C(=O)N1CCN(c3ncccn3)CC1)[C@H]1C(=O)O[C@H](c3ccccc3)[C@H](c3ccccc3)N1[C@@H]2c1ccc(O)cc1
2. COc1cc2c(cc1OC)CN(C(=O)[C@@H]1[C@H]3C(=O)O[C@H](c4ccccc4)[C@H](c4ccccc4)N3[C@H](c3ccc(O)cc3)[C@@]13C(=O)Nc1ccc(C#CCNC(N)=O)cc13)CC2

Response given:
[0.372, 0.578]

Reference for the values: PubChem BioAssay
